Record: compiled Ki on Carbonic anhydrase 2 (Homo sapiens) from multiple reports.
One threshold, 70 nM, splits the recorded Ki values: lower ones are YES, equal or higher ones are NO.

[[record]]
compound = "NS(=O)(=O)c1ccc(CNS(=O)(=O)[C@@H]2O[C@H](CO)[C@H](O)[C@H](O)[C@H]2O)cc1"
category = "YES"

[[record]]
compound = "CC(=O)N1N=C(c2cccc(OS(N)(=O)=O)c2)CC1c1ccc(Cl)cc1Cl (centres undefined)"
category = "NO"

[[record]]
compound = "COc1ccccc1N1CCN(C(=S)SCC(=O)Nc2ccc(S(N)(=O)=O)cc2)CC1"
category = "NO"

[[record]]
compound = "C[C@H](CCC(=O)NCc1ccc(S(N)(=O)=O)cc1)[C@H]1CC[C@H]2[C@@H]3[C@H](O)C[C@@H]4C[C@H](O)CC[C@]4(C)[C@H]3C[C@H](O)[C@]12C"
category = "NO"

[[record]]
compound = "NS(=O)(=O)c1ccc(CCNC(=O)CN2C(=O)NC3(CCCCCC3)C2=O)cc1"
category = "YES"

[[record]]
compound = "NS(=O)(=O)c1cc(C(=O)NC(Cc2ccc(O)c(O)c2)C(=O)O)ccc1Cl (centres undefined)"
category = "NO"

[[record]]
compound = "CC(=O)OC[C@H]1O[C@@H]([Se]c2ccc(NC(=S)Nc3ccc(S(N)(=O)=O)cc3)cc2)[C@H](OC(C)=O)[C@@H](OC(C)=O)[C@@H]1OC(C)=O"
category = "YES"

[[record]]
compound = "CCOC1Oc2ccccc2C(=O)/C1=C/Nc1ccc(S(=O)(=O)Nc2nccs2)cc1 (centres undefined)"
category = "NO"

[[record]]
compound = "CCN(Cc1cc(=O)oc2cc(Cl)ccc12)C1CC(C)S(=O)(=O)c2sc(S(N)(=O)=O)cc21 (centres undefined)"
category = "YES"

[[record]]
compound = "Cc1nn(-c2ccccc2)c2c1c(=O)oc1ccc(N(C)C)cc12"
category = "NO"

[[record]]
compound = "COS(N)(=O)=O"
category = "NO"

[[record]]
compound = "NS(=O)(=O)c1cc(C(=O)NCCC(=O)O)ccc1Cl"
category = "NO"

[[record]]
compound = "CC1=NN(c2ccc(S(N)(=O)=O)cc2)C(=O)CC1"
category = "YES"

[[record]]
compound = "N#Cc1ccc(-c2ccc(S(N)(=O)=O)cc2)cc1"
category = "YES"

[[record]]
compound = "CCOc1ccc(S(=O)(=O)NC(C)(C)CO)cc1-c1nnc2c(n1)c(C)nn2C"
category = "NO"

[[record]]
compound = "Cc1ccc(-c2cs/c(=N\\c3ccc(S(N)(=O)=O)cc3)n2-c2ccccc2)cc1"
category = "NO"

[[record]]
compound = "CC(=O)N1N=C(c2ccc(OS(N)(=O)=O)cc2)CC1c1ccccc1Cl (centres undefined)"
category = "YES"

[[record]]
compound = "COc1cc(S(N)(=O)=O)ccc1-c1noc(-c2cccnc2)n1"
category = "NO"


* * *

Record: compiled Ki on Carbonic anhydrase 2 (Homo sapiens, UniProt P00918) from multiple reports.
reportedMetric: Ki (nM)

[[record]]
compound = "CC(=O)N1N=C(c2cccc(OS(N)(=O)=O)c2)CC1c1cccc(Cl)c1 (centres undefined)"
targetsystem = "Carbonic anhydrase 2 (Homo sapiens, UniProt P00918)"
comparativesign = "="
resultnumber = 56.9

[[record]]
compound = "CC(=O)Nc1ccc(S(N)(=O)=O)cc1F"
targetsystem = "Carbonic anhydrase 2 (Homo sapiens, UniProt P00918)"
comparativesign = "="
resultnumber = 29

[[record]]
compound = "CC(=O)OC[C@H]1O[C@H](O[C@H]2[C@H](OC(C)=O)[C@@H](OC(C)=O)[C@H](OCc3cn(-c4ccc(S(N)(=O)=O)cc4)nn3)O[C@@H]2COC(C)=O)[C@H](OC(C)=O)[C@@H](OC(C)=O)[C@@H]1OC(C)=O"
targetsystem = "Carbonic anhydrase 2 (Homo sapiens, UniProt P00918)"
comparativesign = "="
resultnumber = 7.8

[[record]]
compound = "NS(=O)(=O)c1ccc(CNC(=O)c2ccc(Cl)c(S(N)(=O)=O)c2)cc1"
targetsystem = "Carbonic anhydrase 2 (Homo sapiens, UniProt P00918)"
comparativesign = "="
resultnumber = 28

[[record]]
compound = "CCN(CC(=O)N(CCc1ccc(S(N)(=O)=O)cc1)Cc1ccccc1)Cc1ccccc1"
targetsystem = "Carbonic anhydrase 2 (Homo sapiens, UniProt P00918)"
comparativesign = "="
resultnumber = 392

[[record]]
compound = "CN(Cc1ccccc1)C(=O)S"
targetsystem = "Carbonic anhydrase 2 (Homo sapiens, UniProt P00918)"
comparativesign = ">"
resultnumber = 2000

[[record]]
compound = "COCCOCCN(CCOC)c1cc2cc(S(N)(=O)=O)sc2s1"
targetsystem = "Carbonic anhydrase 2 (Homo sapiens, UniProt P00918)"
comparativesign = "="
resultnumber = 1.58

[[record]]
compound = "O=[N+]([O-])c1ccc(NC(=S)Nc2ccc3c(c2)B(O)OC3)cc1"
targetsystem = "Carbonic anhydrase 2 (Homo sapiens, UniProt P00918)"
comparativesign = ">"
resultnumber = 10000

[[record]]
compound = "Cc1c(O)ccc2c(-c3ccccc3)cc(=O)oc12"
targetsystem = "Carbonic anhydrase 2 (Homo sapiens, UniProt P00918)"
comparativesign = ">"
resultnumber = 10000

